# Experimental Details: AUClast in NOD/SCID mouse at 100 mg/kg, po by LC-MS-MS analysis
# Type: ADME, organism-based, Plasma
# Parameters: time 0 - last, dose 100 mg/kg, route oral
# Measurement Setup: NOD/SCID, plasma

Smiles Text: CC/C(=C(\c1ccc(O)cc1)c1ccc(OCCN)cc1)c1ccccc1
AUC(0-t) / ng·h/mL: 35100

* * *

# key: entry, value: Activity
# Tested On: UniProtKB P03372
# Sequence (P03372 whole entry): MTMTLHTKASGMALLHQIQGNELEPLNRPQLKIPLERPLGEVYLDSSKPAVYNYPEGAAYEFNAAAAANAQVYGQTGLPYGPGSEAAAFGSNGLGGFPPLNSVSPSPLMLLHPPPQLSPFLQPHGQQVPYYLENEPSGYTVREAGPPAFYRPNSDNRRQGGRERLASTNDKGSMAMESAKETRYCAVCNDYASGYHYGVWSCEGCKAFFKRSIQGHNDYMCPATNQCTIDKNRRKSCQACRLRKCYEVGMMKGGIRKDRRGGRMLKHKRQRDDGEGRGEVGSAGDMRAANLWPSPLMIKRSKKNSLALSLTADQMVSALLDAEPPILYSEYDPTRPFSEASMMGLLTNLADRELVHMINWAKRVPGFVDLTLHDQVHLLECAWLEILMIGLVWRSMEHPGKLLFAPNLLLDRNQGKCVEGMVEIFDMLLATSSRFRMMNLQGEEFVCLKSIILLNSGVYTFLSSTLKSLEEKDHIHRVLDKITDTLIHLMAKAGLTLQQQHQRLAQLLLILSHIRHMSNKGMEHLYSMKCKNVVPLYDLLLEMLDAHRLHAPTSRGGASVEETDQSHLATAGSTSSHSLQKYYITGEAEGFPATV
# Experimental Details: Displacement of fluorescent ES2 from human recombinant ERalpha at 100 uM after 2 hrs by fluorimetric analysis relative to control

Smiles Text: CC/C(=C(/c1ccc(O)cc1)c1ccc(OC(=O)C(C)(C)C)cc1)c1ccccc1
Unit Abbreviation: %
Activity: 68

Smiles Text: CC/C(=C(\c1ccc(O)cc1)c1ccc(OCC(N)=O)cc1)c1ccccc1
Unit Abbreviation: %
Activity: 57

Smiles Text: CCC(=C(c1ccc(O)cc1)c1ccc(O)cc1)c1ccccc1
Unit Abbreviation: %
Activity: 80

Smiles Text: CC/C(=C(/c1ccc(OCC(N)=O)cc1)c1ccc(OC(=O)C(C)(C)C)cc1)c1ccccc1
Unit Abbreviation: %
Activity: 56
